Origin of measurements: PubChem BioAssay

ASSAY PROTOCOL: drug combination growth inhibition, ovarian cancer – cell-based, oncology-focused library, rucaparib conditional, profiling panel (AID 1508598)
ASSAY SETUP: patient-derived ovarian cancer cells, CellTiter-Glo viability, 144 h; at 1.25 µM; OCI-P5x cells; without rucaparib; stronger effect = lower value
// classify: if (viability < 50%) fulfilled else not fulfilled

ENTRY SMILES	ASSIGNED LABEL
CCC(CC)CC1(C(=O)Nc2ccccc2SC(=O)C(C)C)CCCCC1	not fulfilled
O=C(NCCCNc1nc(Nc2cccc(NC(=O)N3CCCC3)c2)ncc1I)c1cccs1	not fulfilled
Cc1ccc(C(=O)N(CCCN)[C@@H](c2oc3cc(Cl)ccc3c(=O)c2Cc2ccccc2)C(C)C)cc1	fulfilled
NC(=O)c1ccc(I)c([N+](=O)[O-])c1	not fulfilled
Cc1cnc(-c2cnc(NCCNc3ccc(C#N)cn3)nc2-c2ccc(Cl)cc2Cl)[nH]1	not fulfilled
O=C(Nc1cn[nH]c1-c1nc2ccc(CN3CCOCC3)cc2[nH]1)NC1CC1	not fulfilled
Nc1ccn([C@@H]2O[C@H](CO)[C@@H](O)C2(F)F)c(=O)n1	fulfilled
Cc1cc(N2CCOCC2)cc2[nH]c(-c3c(NC[C@@H](O)c4cccc(Cl)c4)cc[nH]c3=O)nc12	not fulfilled
O=S(=O)(O)CCSSCCS(=O)(=O)O	not fulfilled
Fc1cc(-c2cccc3ncc(-c4cnn(C5CCNCC5)c4)nc23)cc(F)c1CN1CCOCC1	not fulfilled

* * *

ASSAY PROTOCOL: drug combination growth inhibition, ovarian cancer – cell-based, oncology-focused library, rucaparib conditional, profiling panel (AID 1508598)
ASSAY SETUP: patient-derived ovarian cancer cells, CellTiter-Glo viability, 144 h; at 0.0195 µM; OCI-C5x cells; with rucaparib 10 µM; 100% = cells with rucaparib alone
Activity calls are given as the source filed them.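 Rule for the calls: active = normalized viability below 100% at a tested concentration; inactive = the rest.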
Outcome codes: active, inactive

COMPOUND	ASSIGNED LABEL
CC(C)Oc1ccc(C(=O)N[C@H](CNC(=O)CN(C)C)Cc2ccc(-c3cn4cccc([C@H](C)O)c4n3)cc2)cc1Cl	active
CCc1cc(Nc2nccc(-c3c(-c4ccc(OC)c(C(=O)Nc5c(F)cccc5F)c4)nc4ccccn34)n2)c(OC)cc1N1CCC(N2CCN(S(C)(=O)=O)CC2)CC1	inactive
CCOc1ccn(-c2ccc(F)cc2)c(=O)c1C(=O)Nc1ccc(Oc2ccnc(N)c2Cl)c(F)c1	inactive
COc1ccc(-c2ccc3c(N4CCOC[C@@H]4C)nc(N4CCOC[C@@H]4C)nc3n2)cc1CO	inactive
COc1cc2nccc(Oc3ccc(NC(=O)Nc4cc(C)on4)c(Cl)c3)c2cc1OC	inactive
Nc1cccc2c1C(=O)N(C1CCC(=O)NC1=O)C2=O (stereo not drawn)	inactive
N#CCNC(=O)c1ccc(-c2ccnc(Nc3ccc(N4CCOCC4)cc3)n2)cc1	inactive
Cn1c(=O)c(F)c(Nc2ccc(I)cc2F)c2c(=O)n(C[C@@H](O)CO)cnc21	inactive
Cc1c(NC(=O)OC[C@@H]2COCCN2)cn2ncnc(Nc3ccc4c(cnn4Cc4cccc(F)c4)c3)c12	inactive
NC(=O)C1CCCc2c1[nH]c1ccc(Cl)cc21 (stereo not drawn)	inactive
Cn1cncc1[C@@](N)(c1ccc(Cl)cc1)c1ccc2c(c1)c(-c1cccc(Cl)c1)cc(=O)n2C	inactive
COc1cc(OC)c(/C=C/S(=O)(=O)Cc2ccc(OC)c(NCC(=O)O)c2)c(OC)c1	active
O=C(Cc1ccc(-c2ccc(OCCN3CCOCC3)cc2)cn1)NCc1ccccc1	inactive
O=C(O)[C@H](Cc1c[nH]c2ccccc12)N1C(=O)c2ccccc2C1=O	inactive
Fc1cc(-c2cccc3ncc(-c4cnn(C5CCNCC5)c4)nc23)cc(F)c1CN1CCOCC1	inactive
COc1ccc2cc(-c3nc(-c4ccc(S(C)=O)cc4)[nH]c3-c3ccncc3)ccc2c1 (stereo not drawn)	active
C[C@@H](Oc1cc(-n2cnc3ccc(CN4CCN(C)CC4)cc32)sc1C(N)=O)c1ccccc1C(F)(F)F	active
CN(C)Cc1c(C(=O)NCCOc2ccc(C(=O)NO)cc2)oc2ccccc12	inactive

* * *

Consider the following compounds and their measured cell count readings.
ASSAY PROTOCOL: viability loss with induced miR-34 in A549 – imaging, A549 dox-inducible miR-34, nuclei and caspase counts, primary screen (AID 1347080)
ASSAY SETUP: A549 miR-34 inducible, Hoechst nuclei count, 48 h; measured here: total cells with miR-34 induction; stronger effect = lower value

COMPOUND	cell count
CN(Cc1ccccc1)C(=O)[C@H](Cc1ccc2ccccc2c1)NC(=O)[C@@H]1CCCN1C(=O)Nc1ccccc1[N+](=O)[O-]	5700
CCCCC[C@@H](O)CC[C@H]1[C@H](O)CC(=O)[C@@H]1CCCCCCC(=O)O	5350
Nc1nc2c([nH]c(=O)n2[C@@H]2O[C@H](CO)[C@@H](O)[C@H]2O)c(=O)[nH]1	5770
CCc1ccc(/C=C2/SC(=S)NC2=O)cc1	8940
CCCCCS(=O)(=O)CCCCCCCCCCn1c(-c2ccc(O)cc2)c(C)c2cc(O)ccc21	1420
CN1CCN(c2ccc(OC(F)(F)F)c(Nc3ncc4c(n3)-c3c(c(C(N)=O)nn3CCO)CC4)c2)CC1	1120
CC(C)CN(C[C@@H](O)[C@H](Cc1ccccc1)NC(=O)O[C@H]1CCOC1)S(=O)(=O)c1ccc(N)cc1	8920
CCCCC(C)(C)[C@H](O)/C=C/[C@H]1[C@H](O)CC(=O)[C@@H]1CCCCCCC(=O)O	5660
COc1cc(NC(=O)c2ccc(-c3ccc(Cl)cc3)o2)cc(OC)c1	9550
CCCCCCCCCCCCCCCCOC[C@H](COP(=O)([O-])OCC[N+](C)(C)C)SC(C)=O	4720
CCCCC/C=C\C/C=C\C/C=C\C/C=C\CCCC(=O)NC[C@]1(C)CCC[C@]2(C)c3ccc(C(C)C)cc3CC[C@@H]12	5530
CCOC(=O)N1CCN(/[N+]([O-])=N/Oc2ccc([N+](=O)[O-])cc2[N+](=O)[O-])CC1	2110
CCCCCCCCCCCCCCCCCCCCCCCCCCCCCCO	6130
CCN1CCN(Cc2ccc(Nc3ncc(F)c(-c4cc(F)c5nc(C)n(C(C)C)c5c4)n3)nc2)CC1	2650
CN(CCOc1ccc(CC(Nc2ccccc2C(=O)c2ccccc2)C(=O)O)cc1)c1ccccn1 (stereo not drawn)	7420
OC(CCCN1CCN(c2ncc(F)cn2)CC1)c1ccc(F)cc1 (stereo not drawn)	7880
CCN(CC)CCCCN1c2ccccc2Oc2ccc(Cl)cc21	276
CCCCCCCCCCCCCCCC(=O)OC[C@H](COP(=O)([O-])OCC[N+](C)(C)C)OC(=O)CCCC(=O)/C=C/C(=O)O	5760

* * *

ASSAY PROTOCOL: growth inhibition of DIPG cells – cell-based, MIPE5.0 library, qHTS (AID 1347068);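 as to IC50: cells exposed to compound for 48 hours before viability readout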
ASSAY SETUP: SU-DIPG-XXV viability
Results filed as inconclusive are left out. Calls of active or inactive are those of the source. No cut-off is given here; in the data, nearly all actives have IC50 up to about 30 µM.
Outcome codes: active, inactive

COMPOUND	ASSIGNED LABEL
COCCNc1cc(NC(=O)N2CCCc3cc(CN4CCN(C)CC4=O)c(C=O)nc32)ncc1C#N	inactive
Cc1ccccc1C(C(=O)NC1CCCCC1)N(C(=O)Cn1ccnc1C)c1cccc(F)c1 (stereo not given)	inactive
CC(C)c1c(-c2ccccc2)nc2c(C#N)c[nH]n2c1=O	inactive
COc1cc(Nc2ncc3c(n2)-c2ccc(Cl)cc2C(c2c(F)cccc2OC)=NC3)ccc1C(=O)O	active
CC(C)(F)C[C@H](N[C@@H](c1ccc(-c2ccc(S(C)(=O)=O)cc2)cc1)C(F)(F)F)C(=O)NC1(C#N)CC1	inactive

* * *

ASSAY PROTOCOL: JHH-DIPG-1 glioma cell viability, MIPE5.0 library, CellTiter-Glo luminescence, qHTS (AID 1347067);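 also: cells exposed to compound for 48 hours before readout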
ASSAY SETUP: JHH-DIPG-1 glioma viability, CellTiter-Glo ATP luminescence
Records with an inconclusive call do not appear. Activity calls are given as the source filed them. The limit is not given here; nearly all actives have AC50 up to about 26 µM. Where a SMILES comes first, the peptide text is derived from it. The star is where a group is joined. Cbz = O=C(OCc1ccccc1)*
Outcome codes: true for active, false for inactive

COMPOUND	ASSIGNED LABEL
Cc1cc(C(=O)NOCCO)c(Nc2ccc(I)cc2F)n(C)c1=O	true
O=C(CCCCCCNC(=O)c1cnc(N(c2ccccc2)c2ccccc2Cl)nc1)NO	true
CCCN(CCC)C(=O)C1=Cc2ccc(-c3ccc(C(=O)N4CCCC4)cc3)cc2N=C(N)C1	true
CCCCc1nc2cc(/C=C/C(=O)NO)ccc2n1CCN(CC)CC	true
C[Se]CCC(N)C(=O)O (stereo not drawn)	false
Cc1ncsc1-c1ccc([C@H](C)NC(=O)[C@@H]2C[C@@H](O)CN2C(=O)[C@@H](NC(=O)COCCCOCCNC(=O)C[C@@H]2N=C(c3ccc(Cl)cc3)c3c(sc(C)c3C)-n3c(C)nnc32)C(C)(C)C)cc1	true
Cc1cccc(/C=N/Nc2cc(N3CCOCC3)nc(OCCc3ccccn3)n2)c1	false
CC(C)C[C@@H](C=O)NC(=O)[C@H](CC(C)C)NC(=O)[C@H](CC(C)C)NC(=O)OCc1ccccc1 (Cbz-Leu-Leu-Leu-aldehyde)	true
CN(C)C/C=C/C(=O)Nc1cc2c(Nc3ccc(F)c(Cl)c3)ncnc2cc1O[C@H]1CCOC1	true
CCS(=O)(=O)Nc1ccc(Oc2ccc(F)cc2F)c(-c2cn(C)c(=O)c3[nH]ccc23)c1	true
O=C(Nc1cccc(Cl)c1)Nc1ncc(CCNc2ncnc3ccsc23)s1	true
CC1(C)C(N(O)C(=O)Nc2ccc(Cl)cc2)N(c2ccc(Cl)cc2)C(=O)N1CC(=O)N/N=C/C=C/c1ccc([N+](=O)[O-])o1 (stereo not drawn)	true
Cc1ccc2c(=O)c3cccc(CC(=O)O)c3oc2c1C	false
c1ccc(Cn2c(-c3ccc(OCC(C4CCNCC4)n4c(-c5ccccc5)nc5ccccc54)cc3)nc3ccccc32)cc1 (stereo not drawn)	true
CCOc1ccc(-n2c([C@@H](C)N(Cc3cccnc3)C(=O)Cc3ccc(F)c(C(F)(F)F)c3)nc3ncccc3c2=O)cc1	false
NC(=O)c1cccc(-c2cc(Nc3ccc(OC(F)(F)F)cc3)ncn2)c1	true
CC(C)(OCc1nn(Cc2ccccc2)c2ccccc12)C(=O)O	false
Cc1ccc(-n2c(C)cc(-c3nnc4n3CCCCC4)c2C)cc1	true
